Measured values drawn from ChEMBL document CHEMBL4613285 for this set.

# Test system: MDR1
# Assay Details: Efflux ratio of apparent permeability from basolateral to apical over apical to basolateral side in MDCK-MDR1 cells incubated for 2 hrs by LC-MS/MS analysis
# Measurement Context: dog
Reported Property: efflux ratio at 2 h
# answer = number (no unit)

Q. May I ask what efflux ratio at 2 h has been recorded for CN1CCc2c(c3ccccc3n2Cc2ccc(C(=O)NO)cc2)C1 ?
A. 9.83

---

# Assay Details: Ratio of drug level in brain to plasma in C57BL/6 mouse at 3 mg/kg, iv measured after 8 mins by LC-MS/MS analysis
# Measurement Context: brain and plasma
Reported Property: Kp at 8 min
# answer = number (no unit)

Q. May I ask what Kp at 8 min has been recorded for CN1CCc2c(c3ccccc3n2Cc2ccc(C(=O)NO)cc2)C1 [TUBASTATIN A] ?
A. 0.15
